src = ChEMBL document CHEMBL1153067

# test.protocol: Stability in heparin treated rat plasma at 2 uM at 37 degC by electrospray ionization mass spectrometry
# Type: ADME, cell-free
property: log10(half-life at 2 µM) (log10 of the value in h)
The base-10 logarithm of half-life at 2 µM, taken with half-life at 2 µM in h, is what appears here.

> print(dat)
                               given.smiles  value.observed
1  CCc1cc(OC)cc2nc(-c3cccnc3N3CCC[C@@H](C(=O)O)C3)oc(=O)c12            0.40
2  CCc1cc(OC)cc2nc(-c3cccnc3N3CCC[C@H](C(=O)O)C3)oc(=O)c12            0.37
3  CCCCN1CCN(c2ncccc2-c2nc3cc(OC)cc(CC)c3c(=O)o2)CC1           -0.07
4  CCc1cc(OC)cc2nc(-c3cccnc3N3CCN(CCN(C)C)CC3)oc(=O)c12           -0.89
5  CCc1cc(OC)cc2nc(-c3cccnc3N3CCN(CC(=O)O)CC3)oc(=O)c12            0.65
6  CCc1cc(OC)cc2nc(-c3cccnc3N3CCN(CCO)CC3)oc(=O)c12           -0.55

Note down log10(half-life at 2 µM) recorded for CCc1cc(OC)cc2nc(-c3cccnc3N3CCN(CC4CC4)CC3)oc(=O)c12 0.06

Note down log10(half-life at 2 µM) recorded for CCc1cc(OC)cc2nc(-c3cccnc3N3CCN(CC(C)C)CC3)oc(=O)c12 -0.10

Note down log10(half-life at 2 µM) recorded for CCc1cc(OC)cc2nc(-c3cccnc3N3CCN(C4CCCC4)CC3)oc(=O)c12 0.18

Note down log10(half-life at 2 µM) recorded for CCc1cc(OC)cc2nc(-c3cccnc3N3CCN(CCOC)CC3)oc(=O)c12 -0.06
